# MEASUREMENT TARGET: T1, human CD33 (human, UniProt P20138 18-364)
# T1 construct: CD33 on human primary dendritic cells, macrophages, monocytes and T cells and on CHO cells expressing recombinant human CD33; also called Siglec-3; hCD33
# T1 sequence (P20138 18-364): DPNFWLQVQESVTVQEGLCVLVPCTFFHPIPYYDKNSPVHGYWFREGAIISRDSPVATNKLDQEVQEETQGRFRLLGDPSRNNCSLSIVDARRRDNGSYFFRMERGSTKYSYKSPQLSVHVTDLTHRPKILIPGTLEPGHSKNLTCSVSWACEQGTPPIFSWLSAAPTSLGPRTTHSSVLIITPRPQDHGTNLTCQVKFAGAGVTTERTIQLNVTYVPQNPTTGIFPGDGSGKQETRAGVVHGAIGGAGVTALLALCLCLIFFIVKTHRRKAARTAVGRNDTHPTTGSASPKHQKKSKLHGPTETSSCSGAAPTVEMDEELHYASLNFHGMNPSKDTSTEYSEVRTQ
# EXPERIMENT NOTES: flow cytometry, human primary dendritic cells;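 further: binding of anti-CD33 antibodies (10 ug/ml, 1 h on ice) to human primary dendritic cells, detected with a PE-labelled secondary antibody, reported as flow cytometry MFI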
RECORDED METRIC: DC MFI
Write no unit; give the number alone.

QUERY: Looking for the measured DC MFI of C-35 (antibody, V domains shown, human IgG1) VH: QLQLQESGPGLVKPSETLSLTCTVSGGSISSSSYAWGWIRQPPGKGLEWIGNIYYSGSTYYNPSLKSRVTISVDTSKNQFSLKLSSVTAADTAVYYCARAGYRSPSGFDYWGQGTLVTVSS VL: DIQMTQSPSSVSASVGDRVTITCRASQGISSWLAWYQQKPGKAPKLLIYAASNLQSGVPSRFSGSGSGTDFTLTISSLQPEDFATYYCQQGNAHPTFGGGTKVEIK , can you help?
RESULT: 1320

QUERY: Given the entry C-72 (antibody, V domains shown, human IgG1) VH: QVQLVESGGGVVQPGRSLRLSCAASGFTFSSYGMHWVRQAPGKGLEWVAVIWYDGSNKYYADSVKGRFTISRDNSKNTLYLQMNSLRAEDTAVYYCAKEGGTYSDDFDLWGGGTLVTVSS VL: DIQMTQSPSSVSASVGDRVTITCRASQGISSWLAWYQQKPGKAPKLLIYAASSLQSGVPSRFSGSGSGTDFTLTISSLQPEDFATYYCQQASSFPLTFGGGTKVEIK , report its measured DC MFI.
RESULT: 742

QUERY: Consider the binder C-90 (antibody, V domains shown, human IgG1) VH: EVQLVESGGGLVQPGGSLRLSCAASGFTFSSYWMSWVRQAPGKGLEWVANINQDGSEKYYVDSVKGRFTISRDNAKNSLYLQMNSLRAEDTAVYYCAREAGAVTGYRWFDPWGQGTLVTVSS VL: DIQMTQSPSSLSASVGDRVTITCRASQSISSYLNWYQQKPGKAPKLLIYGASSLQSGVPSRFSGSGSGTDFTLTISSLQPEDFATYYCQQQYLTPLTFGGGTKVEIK and give its measured DC MFI.
RESULT: 151

meta.source: patent US20220281976A1
